- subject_of_test: bovine Gamma-Aminobutyric Acid Type A Receptor Agonist (GABAR Agonist), GABRA1 (gene 780973)
- experimental_details: NVS_LGIC_bGABAR_Agonist: NovaScreen (NVS) Ligand-Gated Ion Channel Assay for bovine Gamma-Aminobutyric Acid Type A Receptor Agonist (GABAR Agonist) (AID 2283338)
Inconclusive results are not listed. Active and inactive are the calls of the source. The calls were made as follows: active = hit-call score of the fitted dose curve at least 0.9, where 1 is the maximum; inconclusive = response in the unintended direction; inactive = score below 0.9.
Answer with one of the outcomes label 1 for active, label 0 for inactive

Entry `Cc1cccc2ccccc12` : call = ?
label 0

Entry `Cc1ccc(C(C)C)cc1` : call = ?
label 0

Entry `CCOC(=O)O[C@H](C)OC(=O)c1ccc2c(c1)cc(C(=O)NC1CCN(C(C)C)CC1)n2Cc1cc(-c2ccc(Cl)s2)on1` : call = ?
label 1

Entry `CCN(CC)C(=O)c1cc(S(=O)(=O)Cc2ccccc2)c(N2CCC(c3ccccc3)CC2)cc1N(CC)CCN(C)C` : call = ?
label 0

Entry `O=C1O[C@H]([C@@H](O)CO)C(O)=C1O` : call = ?
label 0

Entry `CC(C)(c1cc(Br)c(O)c(Br)c1)c1cc(Br)c(O)c(Br)c1` : call = ?
label 1

---

- subject_of_test: Estrogen receptor (Homo sapiens) (UniProt P03372)
- Sequence (P03372 whole entry, looked up): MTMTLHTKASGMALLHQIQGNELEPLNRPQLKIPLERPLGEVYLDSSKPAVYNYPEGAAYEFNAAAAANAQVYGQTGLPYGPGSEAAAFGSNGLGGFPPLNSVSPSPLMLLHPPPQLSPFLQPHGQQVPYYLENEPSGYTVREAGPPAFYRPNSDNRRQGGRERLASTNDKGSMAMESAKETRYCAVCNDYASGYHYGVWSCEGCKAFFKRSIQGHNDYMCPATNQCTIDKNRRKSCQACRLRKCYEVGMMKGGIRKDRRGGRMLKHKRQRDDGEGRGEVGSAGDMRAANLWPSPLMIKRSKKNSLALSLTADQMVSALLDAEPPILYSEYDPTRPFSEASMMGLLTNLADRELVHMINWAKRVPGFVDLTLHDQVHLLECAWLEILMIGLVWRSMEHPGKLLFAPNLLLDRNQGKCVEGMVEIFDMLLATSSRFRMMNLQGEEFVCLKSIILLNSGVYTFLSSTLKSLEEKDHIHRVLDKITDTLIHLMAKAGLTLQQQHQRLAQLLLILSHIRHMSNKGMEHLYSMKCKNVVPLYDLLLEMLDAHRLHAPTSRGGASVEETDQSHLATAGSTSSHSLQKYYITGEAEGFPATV
- experimental_details: OT_ERa_GFPERaERE_0120: Odyssey Thera (OT) 2-hour HeLa Transcription Induction Assay for Estrogen Receptor (AID 2283382)
Calls of active or inactive are those of the source. The calls were made as follows: active = hit-call score of the fitted dose curve at least 0.9, where 1 is the maximum; inconclusive = response in the unintended direction; inactive = score below 0.9.
Answer with one of the outcomes active, inactive

Check out these entries, answers already filled in.
[
  {
    "test_smiles": "NCc1cccc(C2CCN(C(=O)c3ccc(C#Cc4ccccc4F)o3)CC2)c1",
    "group": "active"
  },
  {
    "test_smiles": "CN(C)c1ccc(C(=C2C=CC(=[N+](C)C)C=C2)c2ccc(N(C)C)cc2)cc1",
    "group": "inactive"
  }
]

Entry `Cc1occc1C(=O)Nc1ccc(C(=O)N2CCC(F)(F)/C(=C\C(=O)N3CCC(N4CCCCC4)CC3)c3ccccc32)cc1` : call = ?
inactive

Entry `O=C(O)c1ccccc1-n1cc(C(=O)O)c(=O)c2cc(Nc3c(F)cc(F)cc3Cl)c(Cl)cc21` : call = ?
inactive

Entry `CCCCCCCCN(C)CCCCCCCC` : call = ?
inactive

---

- subject_of_test: Heat shock factor protein 1 (Homo sapiens)
- experimental_details: ATG_HSE_CIS: Attagene CIS-FACTORIAL HepG2 Assay for human Heat Shock Transcription Factor 1 (HSE) (AID 2282953)
- condition_context: HepG2 HSE cis-reporter, Attagene RNA transcription; actives raise or lower the signal
The source made the active and inactive calls. How the source made its calls: active means hit-call score of the fitted dose curve at least 0.9, where 1 is the maximum; inactive means score below 0.9.
measure: AC50

Known AC50 results, listed for orientation:
[
  {
    "compound": "Cc1ccc(C(C)C)cc1",
    "AC50": "inactive"
  },
  {
    "compound": "O=C(O)c1ccccc1C(=O)OCc1ccccc1",
    "AC50": "inactive"
  },
  {
    "compound": "CN1C(=O)N(c2ccccc2Br)Cc2cnc(Nc3ccc4c(c3)OCC(CO)O4)nc21 (stereo not given)",
    "AC50": "inactive"
  },
  {
    "compound": "O=C(O)Cn1c(=O)n(Cc2ccc(Br)cc2F)c(=O)c2ccc(Cl)cc21",
    "AC50": "inactive"
  },
  {
    "compound": "CCN(Cc1cccc(S(=O)(=O)O)c1)c1ccc(C(=C2C=CC(=[N+](CC)Cc3cccc(S(=O)(=O)O)c3)C=C2)c2ccccc2S(=O)(=O)[O-])cc1",
    "AC50": "inactive"
  }
]

Quick one: AC50 for `Clc1ccccc1C(c1ccccc1)(c1ccccc1)n1ccnc1` ?
19.1 µM (active)

Quick one: AC50 for `c1ccc2ccccc2c1` ?
inactive

Quick one: AC50 for `CCCCCc1ccc(N)cc1` ?
inactive

Quick one: AC50 for `CCCCCCCCOc1ccc(C(=O)c2ccccc2)c(O)c1` ?
inactive

Quick one: AC50 for `CN1C(=O)CC[C@H]1c1cccnc1` ?
inactive

Quick one: AC50 for `CO[C@H]1/C=C/O[C@@]2(C)Oc3c(C)c(O)c4c(O)c(c(/C=N/N5CCN(C)CC5)c(O)c4c3C2=O)NC(=O)/C(C)=C\C=C\[C@H](C)[C@H](O)[C@@H](C)[C@@H](O)[C@@H](C)[C@H](OC(C)=O)[C@@H]1C` ?
inactive

Quick one: AC50 for `O=C(O)Cc1cc(I)c(Oc2ccc(O)c(I)c2)c(I)c1` ?
170 µM (active) [middle of 4 runs]

Quick one: AC50 for `CCCOC(=O)c1cc(O)c(O)c(O)c1` ?
inactive

---

- experimental_details: BSK_hDFCGF_Proliferation: Cell Proliferation Assessment in the BioMAP Diversity Plus: hDFCGF Assay (AID 2283059);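 also: curves fitted for both rise and fall of signal versus DMSO baseline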
- condition_context: primary human foreskin fibroblasts
Activity calls are given as the source filed them. The calls were made as follows: active = hit-call score of the fitted dose curve at least 0.9, where 1 is the maximum; inactive = score below 0.9.
Answer with one of the outcomes active, inactive

[
  {
    "compound": "CO[C@H]1/C=C/O[C@@]2(C)Oc3c(C)c(O)c4c(O)c(c(/C=N/N5CCN(C)CC5)c(O)c4c3C2=O)NC(=O)/C(C)=C\\C=C\\[C@H](C)[C@H](O)[C@@H](C)[C@@H](O)[C@@H](C)[C@H](OC(C)=O)[C@@H]1C",
    "group": "active"
  },
  {
    "compound": "CCN(Cc1cccc(S(=O)(=O)O)c1)c1ccc(C(=C2C=CC(=[N+](CC)Cc3cccc(S(=O)(=O)O)c3)C=C2)c2ccccc2S(=O)(=O)[O-])cc1",
    "group": "inactive"
  },
  {
    "compound": "COCC(C)OCC(C)OCC(C)O (stereo unspecified)",
    "group": "inactive"
  }
]

Entry `CN1C(=O)CC[C@H]1c1cccnc1` : call = ?
inactive

Entry `O=CCCCC=O` : call = ?
active

Entry `O=c1c(-c2ccc(O)cc2)coc2cc(O)cc(O)c12` : call = ?
active

---

- Read-out: Monokine induced gamma interferon (MIG), CXCL9 (gene 4283)
- experimental_details: BSK_CASM3C_MIG: BioMAP Diversity Plus: CASM3C Assay for Monokine induced gamma interferon (MIG) Biomarker Activity (AID 2283048);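 also: MIG protein level measured by ELISA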
- condition_context: primary human coronary artery smooth muscle cells; actives raise or lower the signal
Active and inactive are the calls of the source. The calls were made as follows: active = hit-call score of the fitted dose curve at least 0.9, where 1 is the maximum; inactive = score below 0.9.
Answer with one of the outcomes class 1 (active), class 0 (inactive)

Check out these entries, answers already filled in.
[
  {
    "compound": "Cc1ccc(C(C)C)cc1",
    "group": "class 0"
  },
  {
    "compound": "O=C(O)Cc1cc(I)c(Oc2ccc(O)c(I)c2)c(I)c1",
    "group": "class 0"
  },
  {
    "compound": "COc1cccc([C@H](O)C2CCN(CCc3ccc(F)cc3)CC2)c1OC",
    "group": "class 0"
  },
  {
    "compound": "CC(O)CC(C)(C)O (configuration not stated)",
    "group": "class 0"
  },
  {
    "compound": "CCCCCc1ccc(N)cc1",
    "group": "class 0"
  },
  {
    "compound": "CCCCCCCCCCCC[N+](C)(C)C",
    "group": "class 1"
  },
  {
    "compound": "CCOC(=O)O[C@H](C)OC(=O)c1ccc2c(c1)cc(C(=O)NC1CCN(C(C)C)CC1)n2Cc1cc(-c2ccc(Cl)s2)on1",
    "group": "class 1"
  },
  {
    "compound": "Cc1cccc2ccccc12",
    "group": "class 0"
  },
  {
    "compound": "NC(=O)c1nc(-c2cccc(-c3cc(F)ccc3OCC(F)(F)C(F)(F)F)c2)n[nH]1",
    "group": "class 0"
  },
  {
    "compound": "OC12N=C(c3ccccc3)SC1Cc1cc(Cl)ccc12 (configuration not stated)",
    "group": "class 0"
  }
]

Entry `CC(=O)N1CCN(c2ccc(OC[C@H]3CO[C@](Cn4ccnc4)(c4ccc(Cl)cc4Cl)O3)cc2)CC1` : call = ?
class 0

Entry `O=C=NCCCCCCN=C=O` : call = ?
class 0

---

- subject_of_test: Bile acid receptor (Homo sapiens)
- experimental_details: OT_FXR_FXRSRC1_0480: Odyssey Thera (OT) 8-hour HEK293T Protein-Complementation Assay for Farnesoid X receptor/SRC-1 Co-activator (AID 2283383)
Records with an inconclusive call do not appear. Calls of active or inactive are those of the source. The calls were made as follows: active = hit-call score of the fitted dose curve at least 0.9, where 1 is the maximum; inconclusive = response in the unintended direction; inactive = score below 0.9.
measure: AC50

Known AC50 results, listed for orientation:
[
  {
    "compound": "Cc1cc2c(cc1C(F)(F)F)N(C(=O)Nc1ccc(Oc3cccnc3C)nc1)CC2",
    "AC50": "19.1 µM (active)"
  },
  {
    "compound": "CN(C[C@@H](CC[N+]12CCC(C3CCCCC3)(CC1)CC2)c1ccc(Cl)c(Cl)c1)C(=O)c1cc(C(F)(F)F)cc(C(F)(F)F)c1",
    "AC50": "85.4 µM (active)"
  },
  {
    "compound": "CN1C(=O)N(c2ccccc2Br)Cc2cnc(Nc3ccc4c(c3)OCC(CO)O4)nc21 (stereo unspecified)",
    "AC50": "0.34 µM (active)"
  },
  {
    "compound": "Cc1ncc(CO)c(CO)c1O",
    "AC50": "inactive"
  },
  {
    "compound": "Cc1ccc2oc(CN(Cc3ccccc3)C(=O)Nc3c(F)cc(F)cc3F)c(-c3ccc(Cl)cc3)c2c1",
    "AC50": "inactive"
  },
  {
    "compound": "CCN(Cc1cccnc1)C(=O)c1cccc(Cl)c1[C@]1(C)C(=O)N(Cc2ccc(OC)cc2OC)c2ccc(Cl)cc21",
    "AC50": "0.278 µM (active)"
  },
  {
    "compound": "COc1cc(C(=O)NC2CCN(C)CC2)ccc1Nc1ncc2c(n1)N(C1CCCC1)CC(F)(F)C(=O)N2C",
    "AC50": "11 µM (active)"
  },
  {
    "compound": "O=C(O)Cc1cc(I)c(Oc2ccc(O)c(I)c2)c(I)c1",
    "AC50": "inactive"
  },
  {
    "compound": "COc1ccc2cc(S(=O)(=O)N[C@H](CC(=O)N[C@H](Cc3ccc(CN4[C@H](C)CCC[C@@H]4C)cc3)C(=O)N(C)C(C)C)c3ccc4c(c3)OCO4)ccc2c1",
    "AC50": "11.1 µM (active)"
  },
  {
    "compound": "CCCCCCCCOc1ccc(C(=O)c2ccccc2)c(O)c1",
    "AC50": "inactive"
  }
]

Turning now to a further compound:
Quick one: AC50 for `CC(C)(C)c1csc(-c2cc3cc(OCc4ccccc4CC(=O)O)ccc3o2)n1` ?
inactive
